B1: glmS ribozyme (parent)
chain: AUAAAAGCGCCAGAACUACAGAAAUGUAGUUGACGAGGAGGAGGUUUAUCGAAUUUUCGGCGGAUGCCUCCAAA

Variants of: B1
protocol_details: self-cleavage kobs at 2500 uM GlcN6P; higher = faster cleavage; RNA array
run_parameters: with glucosamine-6-phosphate
This sample holds only a part of the variants without activity.
observation_type: self-cleavage kobs at 2500 uM GlcN6P (s⁻¹)
One number for each entry, in s⁻¹.

Please look at the items below and tell me self-cleavage kobs at 2500 uM GlcN6P for each one, in order.
1. U30C G66A C67G
2. U55C U57G
3. A39U A64C
4. G13U A53C

**A:**
4.46e-05
2.98e-05
9.58e-05
9.93e-05

Source of measurements: the supplement of paper PMC7125110
